molecular target: Cloned Human Serotonin Receptor, Subtype 7 (h5HT7), expressed in CHO cells (Homo sapiens); construct: purchased PerkinElmer 6120512; host or cells: CHO cells; experiment: Radioligand binding assay, [125I]LSD, cloned human 5HT7 receptor on Flashplate; details: compound at 10^−6 M; radioligand [125I]LSD 0.82 nM; read-out: %-Inhib. (10^−6 M)
reported_endpoint: inhibition at 1 µM (%)

Example compounds with recorded inhibition at 1 µM:
>>> measured_result("c1ccc(CN2CCN(c3cccc4[nH]ccc34)CC2)cc1 [Ex 30, 4-(4-benzylpiperazin-1-yl)-1H-indole]")
83.1
>>> measured_result("Cn1cc(CN2CCN(c3ccccc3)CC2)c2ccccc21 [Ex 1]")
22.3
>>> measured_result("COc1ccc(C(C)C)cc1CN1CCN(C(=O)c2ccsc2)CC1 [Ex 8]")
30.5

P = COc1ccc(C(C)C)cc1CN1CCN(c2ncccn2)CC1 [Ex 27]
Q = Cc1cc(NC(=O)CN2CCN(c3cccc4[nH]ccc34)CC2)n(C)n1 [Ex 5]
In: Thinking about recorded inhibition at 1 µM values, which is higher, P or Q ? Your answer should be the label attached to the chosen record.
Out: P
(P: 48.9%, Q: 14.3%)

* * *

Attribute: IC50
target: Cloned Human Serotonin Receptor, Subtype 7 (h5HT7), expressed in CHO cells (Homo sapiens); construct: purchased PerkinElmer 6120512; host or cells: CHO cells; assay: Radioligand binding assay, [125I]LSD, cloned human 5HT7 receptor on Flashplate
Write the number in nM without appending the unit.

>>> measured_result("Clc1ccc(CN2CCN(c3cccc4[nH]ccc34)CC2)cn1")
328

Now examine the next entry.
In: Reported IC50, compound COc1ccc(CN2CCN(c3ccccc3OC(C)C)CC2)c(OC)n1 : ____
Out: 82.2

* * *

target: Cloned Human Serotonin Receptor, Subtype 7 (h5HT7), expressed in CHO cells (Homo sapiens); construct: purchased PerkinElmer 6120512; host or cells: CHO cells; experiment: Radioligand binding assay, [125I]LSD, cloned human 5HT7 receptor on Flashplate; settings: compound at 10^−6 M; radioligand [125I]LSD 0.82 nM; read-out: %-Inhib. (10^−6 M)
reported_endpoint: inhibition at 1 µM (%)

>>> measured_result("COc1ccc(CN2CCN(c3ccc(Cl)cc3)CC2)c(OC)n1 [Ex 18]")
12.3
>>> measured_result("Cc1ccc(N2CCN(Cc3ccc(OC4CCCCO4)cc3)CC2)c(C)c1 (centres unmarked) [Ex 13]")
12.1

I = Oc1cccc(N2CCN(Cc3ccc(OC(F)(F)F)cc3)CC2)c1 [Ex 2]
II = Cc1cccc(-n2c(=O)c(CN3CCN(c4cccc5[nH]ccc45)CC3)cc3cccnc32)c1 [Ex 20]
III = COc1ccc(CN2CCN(c3cccc4[nH]ccc34)CC2)c(OC)n1 [Ex 22]
In: Let's sort these by inhibition at 1 µM, smallest first. Go ahead? Returns: the labels listed in the requested order.
Out: I, II, III
(I: 15.1%, II: 51.9%, III: 114%)

* * *

biological target: Cloned Human Serotonin Receptor, Subtype 7 (h5HT7), expressed in CHO cells (Homo sapiens, UniProt P34969); construct: purchased PerkinElmer 6120512; host or cells: CHO cells; experiment: Radioligand binding assay, [125I]LSD, cloned human 5HT7 receptor on Flashplate; settings: radioligand [125I]LSD 0.82 nM
Sequence (P34969 whole entry): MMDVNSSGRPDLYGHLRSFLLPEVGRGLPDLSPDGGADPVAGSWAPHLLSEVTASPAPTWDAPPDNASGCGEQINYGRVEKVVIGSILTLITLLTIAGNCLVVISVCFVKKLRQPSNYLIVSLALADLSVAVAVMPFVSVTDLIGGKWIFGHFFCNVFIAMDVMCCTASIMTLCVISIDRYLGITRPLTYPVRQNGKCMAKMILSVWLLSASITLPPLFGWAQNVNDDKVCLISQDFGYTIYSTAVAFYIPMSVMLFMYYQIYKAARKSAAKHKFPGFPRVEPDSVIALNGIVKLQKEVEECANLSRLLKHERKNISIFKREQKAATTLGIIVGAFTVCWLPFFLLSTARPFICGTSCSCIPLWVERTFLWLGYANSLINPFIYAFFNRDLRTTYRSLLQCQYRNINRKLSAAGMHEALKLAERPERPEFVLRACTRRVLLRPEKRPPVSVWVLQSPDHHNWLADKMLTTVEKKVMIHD
pIC50: −log10 of the molar value.
reported_endpoint: pIC50

>>> measured_result("COc1ccc(C(C)C)cc1CN1CCN(C(=O)c2ccc(Br)cc2)CC1 [Ex 9]")
5.75
>>> measured_result("c1ccc2cc(CN3CCN(c4cccc5[nH]ccc45)CC3)ccc2c1 [Ex 32]")
6.12
>>> measured_result("Fc1cc2c(c(CN3CCN(C4CCc5ccccc5C4)CC3)c1)OCOC2 (stereo not drawn) [Ex 4]")
5.63
>>> measured_result("Fc1ccccc1CN1CCN(c2cccc3[nH]ccc23)CC1 [Ex 31]")
6.34
>>> measured_result("Cc1cccc(-n2c(=O)c(CN3CCN(c4cccc5[nH]ccc45)CC3)cc3cccnc32)c1 [Ex 20]")
6.37

I = c1ccc(CN2CCN(c3cccc4[nH]ccc34)CC2)cc1 [Ex 30, 4-(4-benzylpiperazin-1-yl)-1H-indole]
II = c1ccc(OCCN2CCN(c3cccc4[nH]ccc34)CC2)cc1 [Ex 3]
In: Given I and given II , which shows the smaller recorded pIC50? Refer to your chosen item by its label in the answer.
Out: II

a = COc1ccc(CN2CCN(c3cccc4[nH]ccc34)CC2)c(OC)n1 [Ex 22]
b = c1cc(N2CCN(Cc3ccc(OC4CCCCO4)cc3)CC2)c2cc[nH]c2c1 (stereo not drawn) [Ex 19]
In: # returns the entry with the larger pIC50; inputs a and b Which one? Tell me its label.
Out: a
